# System: RXRa homodimer (NR concentration 180 nM)
# experimental protocol: PBM binding z-score (relative to random genomic background probes); higher = stronger binding; sequences stand for … in GC…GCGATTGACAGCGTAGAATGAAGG
reported metric: PBM binding z-score

sequence content	reported metric	result
CCAGACAGGTGAAAGTTAACTCAGTCTGGTACGC	PBM binding z-score	1.2
TGTCAAAGTTCAAAGGAAACGTAAGTATCCACAC	PBM binding z-score	4.12
CGAACGAGGGCATGGGTTGATAGCAAATGCCGAT	PBM binding z-score	1.26
CGAACTAGGTGAGAACAGGACAGTGAAGGATGAT	PBM binding z-score	0.458
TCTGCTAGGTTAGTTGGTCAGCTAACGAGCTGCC	PBM binding z-score	-0.323
TAGCCTAGGTCATTGGGCAAGTATAGTACGCATC	PBM binding z-score	2.94
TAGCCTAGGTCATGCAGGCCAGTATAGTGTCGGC	PBM binding z-score	2.96
ACTTACGGATCAACGAGGTTATAGCACGCGTATA	PBM binding z-score	1.46
CCTTACGGGTCACTGTCAGGTTATAGCATTTGGA	PBM binding z-score	4.49
AGAATGAGGTTACCAAAGATCAGGAAAACGCTTG	PBM binding z-score	2.56
TAGCCTAGGTCACTGGGCCAGTATAGTACGCATC	PBM binding z-score	2.8

---

# Tested on: THRa:RXRa (NR concentration 90 nM, RXRa partner concentration 90 nM)
# experimental protocol: PBM binding z-score (relative to random genomic background probes); higher = stronger binding; sequences stand for … in GC…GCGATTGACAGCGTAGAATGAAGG
// label = true if PBM binding z-score is not less than 3, otherwise false

sequence content	classification
ACTAGCAGGCCAAGGGTCACTCTAGATTAGTCCG	false
CAAACTAGGTCAGAACAGGACAGTGAAGGATGAT	true
CCTCCTGGGCCAAAAAGGTCATTGATGCCGATAA	true
TCTTGTAGATCAAAAGGAGGTTAAGAAAGATCGA	false
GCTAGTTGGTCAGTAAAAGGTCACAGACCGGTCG	true
CAAACTAGGTCACGATAGGTCAAAGTCGAATGAC	true
TCTGCTAGGTCAGTTGGTCCGCTAACGAGCTGCC	false

---

# PBM binding z-score listing for each entry below
# Test system: RARg homodimer (NR concentration 270 nM)
# experimental protocol: PBM binding z-score (relative to random genomic background probes); higher = stronger binding; sequences stand for … in GC…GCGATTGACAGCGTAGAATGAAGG
reported metric: PBM binding z-score

sequence content	target or system	reported metric	numeric value
TCATGTAGGTAAAGGTGAAAGTCGAACGATATGA	RARg homodimer (NR concentration 270 nM)	PBM binding z-score	1.37
CGTCCAACGTCAGAGAGGTCAGTGAATGCCGAGT	RARg homodimer (NR concentration 270 nM)	PBM binding z-score	3.06
TCTTGCAGATCAAAGGTTAAGAAAGCCGAAGCCT	RARg homodimer (NR concentration 270 nM)	PBM binding z-score	0.521
TCAGACAGGTGGAGGTAACTCAGGTACGCAGTCG	RARg homodimer (NR concentration 270 nM)	PBM binding z-score	-0.245
GCTATTAGTTGACAGGGCAACCGAATGATTCTCG	RARg homodimer (NR concentration 270 nM)	PBM binding z-score	0.693
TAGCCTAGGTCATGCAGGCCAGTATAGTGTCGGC	RARg homodimer (NR concentration 270 nM)	PBM binding z-score	4.12
CATCGGAGGACAGAAGGTCAGAGCTGTCCGCTTT	RARg homodimer (NR concentration 270 nM)	PBM binding z-score	2.93
TGAATGAGGTTAAAAATCAGGGAACGTGGCGTCG	RARg homodimer (NR concentration 270 nM)	PBM binding z-score	0.835
GGTACGAGGGCAAGTTGATAGCAGAGTTTGATGG	RARg homodimer (NR concentration 270 nM)	PBM binding z-score	2.47
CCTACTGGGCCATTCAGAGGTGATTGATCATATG	RARg homodimer (NR concentration 270 nM)	PBM binding z-score	0.223
TCTAGTTGGTCACGGAGGTCAGACACGACGGGTA	RARg homodimer (NR concentration 270 nM)	PBM binding z-score	3.75
CTCGAAAGGTCGGTTGATGTGAGTATACGGATAA	RARg homodimer (NR concentration 270 nM)	PBM binding z-score	2.37

Ref: the supplement of paper PMC6555819
